- experimentalTarget: human recombinant 5-HT2c receptor (Homo sapiens)
- Sequence (P28335 33-458): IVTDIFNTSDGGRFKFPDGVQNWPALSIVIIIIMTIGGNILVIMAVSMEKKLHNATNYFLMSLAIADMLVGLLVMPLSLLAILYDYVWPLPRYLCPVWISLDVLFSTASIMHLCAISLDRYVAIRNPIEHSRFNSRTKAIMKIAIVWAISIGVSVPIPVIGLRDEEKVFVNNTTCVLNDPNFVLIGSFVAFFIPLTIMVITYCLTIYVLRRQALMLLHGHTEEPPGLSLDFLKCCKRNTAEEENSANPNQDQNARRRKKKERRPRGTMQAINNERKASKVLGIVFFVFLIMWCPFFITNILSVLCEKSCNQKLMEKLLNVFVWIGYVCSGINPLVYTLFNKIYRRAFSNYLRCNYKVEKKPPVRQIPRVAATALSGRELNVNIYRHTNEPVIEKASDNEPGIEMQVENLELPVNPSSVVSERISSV
- runDescription: FLIPR fluorescent Ca2+ mobilisation agonist assay in CHO K1 cells (Method 1)
- measurementContext: agonist affinity, FLIPR
- Experimental: The compounds of the invention were evaluated for biological activity by measuring the agonist affinity (EC50) and efficacy (Emax) at the human recombinant 5-HT2c receptor expressed in CHO K1 cells, using a fluorescent based Ca^2+ mobilisation assay format compatible with FLIPR technology (Method 1). Additionally, the binding activity of a compound was determined by measuring its affinity for the human recombinant 5-HT2c receptor membranes from Swiss 3T3 cells (Method 2). […]
Where a name gives a salt, the structure may show the parent alone.
Assign pEC50 to each entry below.
Please report pEC50 as the negative decimal logarithm of the molar concentration, giving only the number.

Using the record for CCN(C)c1nc2c(c(NCC(C)C)n1)CCNCC2 [Example 101] , report its pEC50.
6.49

Using the record for Cc1ncccc1COc1nc(Cc2ccccc2)nc2c1CCNCC2 [Example 77] , report its pEC50.
6.89

Using the record for C1Cc2nc(N3CCSCC3)nc(N3CCSCC3)c2CCN1 [Example 94] , report its pEC50.
6.58

Using the record for OCCNc1nc(Cc2ccccc2)nc2c1CCNCC2 [Example 23, hydrochloride] , report its pEC50.
6.80
